- test target: hTAS1R1 A170W/rTAS1R3 (UniProt Q7RTX1+Q923K1, A170W)
- Construct: The cDNA coding region of rTAS1R3 was synthesized with optimized-codon usage for human expression
- experiment notes: Calcium assay, hTAS1R1 mutant co-expressed with rTAS1R3
readout type: EC50
Reply with the number, then its unit.

Lookup result for N[C@@H](CCC(=O)N[C@@H](CS)C(=O)NCC(=O)O)C(=O)O [GSH, γ-L-glutamyl-L-cysteinyl-glycine] ; measured EC50: 5.29 mM

* * *

- test target: hTAS1R1 R151A/rTAS1R3 (Homo sapiens, UniProt Q7RTX1, R151A)
- Construct: UniProtKB number Q7RTX1–1)
- Sequence (Q7RTX1 21-841 R151A): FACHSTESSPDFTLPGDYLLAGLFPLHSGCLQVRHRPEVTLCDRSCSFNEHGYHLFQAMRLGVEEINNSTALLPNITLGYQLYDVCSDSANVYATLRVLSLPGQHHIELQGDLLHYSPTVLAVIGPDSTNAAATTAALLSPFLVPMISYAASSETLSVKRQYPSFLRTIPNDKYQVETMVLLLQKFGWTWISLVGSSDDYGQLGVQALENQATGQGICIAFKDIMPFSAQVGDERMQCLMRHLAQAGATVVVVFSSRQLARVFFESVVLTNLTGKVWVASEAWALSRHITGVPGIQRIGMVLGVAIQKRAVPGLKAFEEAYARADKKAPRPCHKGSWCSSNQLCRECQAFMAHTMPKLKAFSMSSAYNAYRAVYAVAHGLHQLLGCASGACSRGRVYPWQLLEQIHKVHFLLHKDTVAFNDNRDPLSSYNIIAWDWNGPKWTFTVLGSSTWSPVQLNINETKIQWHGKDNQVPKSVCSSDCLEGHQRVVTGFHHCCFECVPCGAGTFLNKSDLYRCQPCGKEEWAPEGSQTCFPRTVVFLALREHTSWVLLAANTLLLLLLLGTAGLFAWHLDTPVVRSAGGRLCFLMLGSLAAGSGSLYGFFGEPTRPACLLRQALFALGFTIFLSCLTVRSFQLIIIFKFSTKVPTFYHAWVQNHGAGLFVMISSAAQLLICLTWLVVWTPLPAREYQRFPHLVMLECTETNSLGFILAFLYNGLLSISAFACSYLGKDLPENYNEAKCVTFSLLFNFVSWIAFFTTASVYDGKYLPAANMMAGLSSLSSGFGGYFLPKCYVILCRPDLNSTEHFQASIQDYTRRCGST
- Sequence (Q923K1 21-858 partner): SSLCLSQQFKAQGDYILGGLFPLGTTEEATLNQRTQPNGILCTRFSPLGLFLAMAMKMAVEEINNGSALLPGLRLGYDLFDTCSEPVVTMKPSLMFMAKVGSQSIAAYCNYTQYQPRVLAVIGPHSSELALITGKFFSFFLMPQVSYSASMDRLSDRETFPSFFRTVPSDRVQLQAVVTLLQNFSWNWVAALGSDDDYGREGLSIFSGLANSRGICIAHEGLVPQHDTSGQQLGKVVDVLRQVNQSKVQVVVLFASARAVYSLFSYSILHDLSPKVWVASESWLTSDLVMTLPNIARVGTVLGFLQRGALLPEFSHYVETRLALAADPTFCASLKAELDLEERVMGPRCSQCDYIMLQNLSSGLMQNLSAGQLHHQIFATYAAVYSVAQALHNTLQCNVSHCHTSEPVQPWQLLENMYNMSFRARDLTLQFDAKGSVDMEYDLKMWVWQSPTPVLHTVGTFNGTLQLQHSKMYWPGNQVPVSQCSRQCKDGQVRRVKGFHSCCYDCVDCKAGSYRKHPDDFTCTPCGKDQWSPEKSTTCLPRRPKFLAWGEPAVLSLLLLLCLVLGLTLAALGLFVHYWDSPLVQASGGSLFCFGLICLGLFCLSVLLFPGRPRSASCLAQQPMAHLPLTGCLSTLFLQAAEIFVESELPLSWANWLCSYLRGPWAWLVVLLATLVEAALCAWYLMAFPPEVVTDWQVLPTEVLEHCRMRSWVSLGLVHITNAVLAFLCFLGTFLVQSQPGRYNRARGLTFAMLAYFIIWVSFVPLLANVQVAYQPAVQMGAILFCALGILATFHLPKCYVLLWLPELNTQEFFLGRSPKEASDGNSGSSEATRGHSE
- experiment notes: Calcium assay, hTAS1R1 mutant co-expressed with rTAS1R3
readout type: EC50 (µM)
Numbers only, in µM.

Per the record, N[C@@H](CCC(=O)N[C@@H](CS)C(=O)NCC(=O)O)C(=O)O has EC50 of 2590

* * *

- test target: hTAS1R2/rTAS1R3(Mut1) (UniProt Q8TE23+Q923K1, A277V/L68N/R278H/S168G/S302A)
- Construct: The cDNA coding region of rTAS1R3 was synthesized with optimized-codon usage for human expression
- Sequence (Q8TE23 20-839): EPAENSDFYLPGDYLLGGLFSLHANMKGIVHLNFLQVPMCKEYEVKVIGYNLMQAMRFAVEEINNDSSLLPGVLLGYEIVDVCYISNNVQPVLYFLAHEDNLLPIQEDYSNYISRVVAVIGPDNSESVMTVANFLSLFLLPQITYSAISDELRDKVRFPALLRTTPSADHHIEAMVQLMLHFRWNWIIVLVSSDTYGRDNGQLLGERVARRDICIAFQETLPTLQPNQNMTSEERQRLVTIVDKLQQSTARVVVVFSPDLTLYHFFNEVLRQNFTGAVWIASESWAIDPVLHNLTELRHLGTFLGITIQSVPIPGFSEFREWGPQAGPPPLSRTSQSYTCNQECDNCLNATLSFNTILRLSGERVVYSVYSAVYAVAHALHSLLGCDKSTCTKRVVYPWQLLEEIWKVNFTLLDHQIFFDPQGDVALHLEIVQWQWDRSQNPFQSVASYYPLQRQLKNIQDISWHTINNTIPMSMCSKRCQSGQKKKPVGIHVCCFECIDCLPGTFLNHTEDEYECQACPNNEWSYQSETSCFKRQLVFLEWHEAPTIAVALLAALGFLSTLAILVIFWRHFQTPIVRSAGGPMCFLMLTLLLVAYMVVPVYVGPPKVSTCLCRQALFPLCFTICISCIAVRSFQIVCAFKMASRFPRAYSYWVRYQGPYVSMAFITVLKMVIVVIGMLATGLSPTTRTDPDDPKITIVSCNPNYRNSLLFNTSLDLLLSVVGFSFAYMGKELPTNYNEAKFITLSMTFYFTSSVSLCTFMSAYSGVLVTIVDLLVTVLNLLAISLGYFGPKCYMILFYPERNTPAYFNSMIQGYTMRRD
- Sequence (Q923K1 21-858 L68N/S168G/A277V/R278H/S302A): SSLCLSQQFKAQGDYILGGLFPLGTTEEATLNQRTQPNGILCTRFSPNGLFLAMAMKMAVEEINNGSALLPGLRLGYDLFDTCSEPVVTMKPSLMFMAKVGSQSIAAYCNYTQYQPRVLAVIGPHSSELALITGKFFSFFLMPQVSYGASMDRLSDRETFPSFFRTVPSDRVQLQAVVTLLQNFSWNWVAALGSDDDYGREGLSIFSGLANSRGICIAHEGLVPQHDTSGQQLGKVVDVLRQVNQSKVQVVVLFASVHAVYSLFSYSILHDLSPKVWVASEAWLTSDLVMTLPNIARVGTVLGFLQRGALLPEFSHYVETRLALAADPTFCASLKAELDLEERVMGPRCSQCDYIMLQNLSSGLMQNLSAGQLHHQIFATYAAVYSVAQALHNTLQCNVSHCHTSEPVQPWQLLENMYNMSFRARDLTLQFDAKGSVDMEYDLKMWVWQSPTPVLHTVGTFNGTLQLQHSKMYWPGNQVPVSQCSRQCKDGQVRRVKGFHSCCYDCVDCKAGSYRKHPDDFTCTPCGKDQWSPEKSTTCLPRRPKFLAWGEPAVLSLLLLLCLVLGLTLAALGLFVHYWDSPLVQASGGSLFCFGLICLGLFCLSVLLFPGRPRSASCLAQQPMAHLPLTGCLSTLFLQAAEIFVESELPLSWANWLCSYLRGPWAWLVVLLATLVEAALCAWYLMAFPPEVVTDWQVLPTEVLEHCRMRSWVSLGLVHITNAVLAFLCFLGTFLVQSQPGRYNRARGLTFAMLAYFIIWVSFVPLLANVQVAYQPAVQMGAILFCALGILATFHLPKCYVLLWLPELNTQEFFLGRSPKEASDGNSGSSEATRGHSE
- experiment notes: Calcium assay, mutated rTAS1R3 co-expressed with hTAS1R2
- applied conditions: sucralose alone, Fig. 4A
readout type: pEC50
Numbers only, as −log10 of the molar value.

Notebook: OC[C@H]1O[C@H](O[C@]2(CCl)O[C@H](CCl)[C@@H](O)[C@@H]2O)[C@H](O)[C@@H](O)[C@H]1Cl [sucralose, reference compound] , pEC50 read as 3.55

* * *

- test target: hTAS1R1 H71Y/rTAS1R3 (UniProt Q7RTX1+Q923K1, H71Y)
- Construct: UniProtKB number Q7RTX1–1); The cDNA coding region of rTAS1R3 was synthesized with optimized-codon usage for human expression
- experiment notes: cell-based
readout type: EC50 (mM)
Give bare numbers, in mM.

Per the records, this compound ( N[C@@H](CCC(=O)N[C@@H](CS)C(=O)NCC(=O)O)C(=O)O [GSH, γ-L-glutamyl-L-cysteinyl-glycine] ) has EC50 equal to 12.4
